test system: S. aureus; assay: Evaluation of rapid antimicrobial activity in presence of serum (S. aureus); type: cell-based; settings: Table 6; Gel Base #1; ingredients % w/w; control base 3.4 × 10^7 cfu/ml
Entries and their log10 reduction in colony count from the control values follow.
Measurement Type: log10 reduction in colony count from the control (log10)

[
  {
    "Compound": "N=C(NCCCCCCNC(=N)NC(=N)Nc1ccc(Cl)cc1)NC(=N)Nc1ccc(Cl)cc1.O=C(O)[C@H](O)[C@@H](O)[C@H](O)[C@H](O)CO.O=C(O)[C@H](O)[C@@H](O)[C@H](O)[C@H](O)CO [CHG, chlorhexidine gluconate]",
    "Tested System": "S. aureus",
    "Value Measured": 1.7
  },
  {
    "Compound": "CC(C)=CCCC(C)=CCCC(C)=CCO",
    "Tested System": "S. aureus",
    "Value Measured": 0.6
  },
  {
    "Compound": "Oc1cc(Cl)ccc1Oc1ccc(Cl)cc1Cl",
    "Tested System": "S. aureus",
    "Value Measured": 1.3
  },
  {
    "Compound": "CC(C)(C)CC(C)(C)c1ccc(OCCOCC[N+](C)(C)Cc2ccccc2)cc1 [BZT, benzethonium chloride]",
    "Tested System": "S. aureus",
    "Value Measured": 1.6
  }
]
